biological target: human CYP11B2 (Homo sapiens, UniProt P19099); assay: Aldosterone production inhibition in V79-B2 cells expressing human CYP11B2 (ELISA); settings: V79-B2 cells, corticosterone 100 nmol/L, 4 hours, aldosterone by ELISA; mean or mean ± SD
Sequence (P19099 25-503): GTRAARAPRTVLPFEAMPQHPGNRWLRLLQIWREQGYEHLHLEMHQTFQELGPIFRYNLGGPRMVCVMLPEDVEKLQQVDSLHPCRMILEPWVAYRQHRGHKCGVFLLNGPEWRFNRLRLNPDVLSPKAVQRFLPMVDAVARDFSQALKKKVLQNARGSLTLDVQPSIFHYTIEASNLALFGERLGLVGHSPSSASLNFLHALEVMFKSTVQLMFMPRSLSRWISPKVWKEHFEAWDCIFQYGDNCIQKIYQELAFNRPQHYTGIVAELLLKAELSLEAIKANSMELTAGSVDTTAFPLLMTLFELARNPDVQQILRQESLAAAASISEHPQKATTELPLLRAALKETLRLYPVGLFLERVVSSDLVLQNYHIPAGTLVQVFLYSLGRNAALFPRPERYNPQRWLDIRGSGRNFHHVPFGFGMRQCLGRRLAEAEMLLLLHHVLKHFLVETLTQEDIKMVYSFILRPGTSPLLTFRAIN

>  <COMPOUND>
FCCCn1c(-c2cncc(Cn3ccnc3)c2)nc2cc(F)c(Cl)cc21 [Compound 500]

>  <EXPERIMENTAL SYSTEM>
human CYP11B2 (Homo sapiens, UniProt P19099)

>  <IC50>
3.94 nM

$$$$
>  <COMPOUND>
FCCn1c(-c2cncc(Cn3ccnc3)c2)nc2cc(F)c(Cl)cc21 [Compound 100]

>  <EXPERIMENTAL SYSTEM>
human CYP11B2 (Homo sapiens, UniProt P19099)

>  <IC50>
6.9 nM

$$$$
>  <COMPOUND>
CC(C)n1c(-c2cncc(Cn3ccnc3)c2)nc2ccc(I)cc21 [Compound 606]

>  <EXPERIMENTAL SYSTEM>
human CYP11B2 (Homo sapiens, UniProt P19099)

>  <IC50>
116 nM

$$$$
>  <COMPOUND>
Ic1ccc2nc(-c3cncc(Cn4ccnc4)c3)n(C3CC3)c2c1 [Compound 602]

>  <EXPERIMENTAL SYSTEM>
human CYP11B2 (Homo sapiens, UniProt P19099)

>  <IC50>
2.17 nM

$$$$
>  <COMPOUND>
FCCn1c(-c2cncc(Cn3ccnc3)c2)nc2ccc(I)cc21 [Compound 604]

>  <EXPERIMENTAL SYSTEM>
human CYP11B2 (Homo sapiens, UniProt P19099)

>  <IC50>
4.54 nM

$$$$
>  <COMPOUND>
FCCn1c(-c2cncc(Cn3ccnc3)c2)nc2cc(F)c(Br)cc21 [Compound 200]

>  <EXPERIMENTAL SYSTEM>
human CYP11B2 (Homo sapiens, UniProt P19099)

>  <IC50>
7.47 nM

$$$$
>  <COMPOUND>
CCn1c(-c2cncc(Cn3ccnc3)c2)nc2ccc(I)cc21 [Compound 608]

>  <EXPERIMENTAL SYSTEM>
human CYP11B2 (Homo sapiens, UniProt P19099)

>  <IC50>
6.58 nM

$$$$
>  <COMPOUND>
Fc1cc2nc(-c3cncc(Cn4ccnc4)c3)n(Cc3ccc(I)cc3)c2cc1Cl [Compound 605]

>  <EXPERIMENTAL SYSTEM>
human CYP11B2 (Homo sapiens, UniProt P19099)

>  <IC50>
204 nM

$$$$
>  <COMPOUND>
COc1cc(I)cc2c1nc(-c1cncc(Cn3ccnc3)c1)n2C1CC1 [Compound 609]

>  <EXPERIMENTAL SYSTEM>
human CYP11B2 (Homo sapiens, UniProt P19099)

>  <IC50>
1.49 nM

$$$$
>  <COMPOUND>
FCCn1c(-c2cncc(Cn3ccnc3)c2)nc2cc(F)c(I)cc21 [Compound 400]

>  <EXPERIMENTAL SYSTEM>
human CYP11B2 (Homo sapiens, UniProt P19099)

>  <IC50>
44.5 nM

$$$$
>  <COMPOUND>
COC(=O)c1cncn1Cc1cncc(-c2nc3cc(F)c(Br)cc3n2CCO)c1 [Compound 300]

>  <EXPERIMENTAL SYSTEM>
human CYP11B2 (Homo sapiens, UniProt P19099)

>  <IC50>
10.6 nM

$$$$
>  <COMPOUND>
FCCn1c(-c2cncc(Cn3cncc3I)c2)nc2cc(F)c(Cl)cc21 [Compound 610]

>  <EXPERIMENTAL SYSTEM>
human CYP11B2 (Homo sapiens, UniProt P19099)

>  <IC50>
9.81 nM

$$$$
